# System Tested: KRas^Q61H (Homo sapiens, UniProt P01116, Q61H)
# Sequence (P01116 1-169 isoform P01116-2 Q61H): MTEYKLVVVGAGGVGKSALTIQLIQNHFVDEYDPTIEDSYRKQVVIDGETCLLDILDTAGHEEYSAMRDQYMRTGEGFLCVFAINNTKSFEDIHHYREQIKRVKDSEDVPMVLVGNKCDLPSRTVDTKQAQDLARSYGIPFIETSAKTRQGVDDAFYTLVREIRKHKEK
# Method Description: biochemical
Recorded Endpoint: IC50 (nM)

CCc1cccc2cccc(N3CCc4c(nc(OCC56CCCN5CCC6)nc4N4CC(C)CC(CO)C4)C3)c12 (stereo not shown): 1440
CCc1cccc2cccc(N3CCc4c(nc(OCC56CCCN5CCC6)nc4N4CCCC(c5cn(C)nn5)C4)C3)c12 (stereo not shown): 1490
CCc1cccc2cccc(N3CCc4c(nc(OCC56CCCN5CCC6)nc4N4CCCC(c5c[nH]cn5)C4)C3)c12 (stereo not shown): 1640
CCc1c(F)ccc2cc(O)cc(N3CCc4c(nc(OC[C@@]56CCCN5C[C@H](F)C6)nc4NCc4c[nH]c5ncccc45)C3)c12: 38

1. CCc1cccc2cccc(N3CCc4c(nc(OCC56CCCN5CCC6)nc4NCc4ccc5nncn5c4)C3)c12
2. CCc1cccc2cccc(N3CCc4c(nc(OCC56CCCN5CCC6)nc4N4CCOCC(C)(O)C4)C3)c12 (stereo not shown)
3. CCc1cccc2cccc(N3CCc4c(nc(OCC56CCCN5CCC6)nc4N4CCCC(S(=O)(=O)NC)C4)C3)c12 (stereo not shown)
Arrange the 3 entries by IC50 so the values rise. I'd appreciate it if you listed the labels in the requested order.
2, 3, 1
(2: 95 nM, 3: 1050 nM, 1: 1640 nM)
